# Test system: NCI-H460
# assay_method_text: NCI tumour cell line growth inhibition, 48 h
The source made the active and inactive calls. Rule as the data show it: active = GI50 up to about 1.1 µM and inactive = higher.
reported_endpoint: GI50

Worked cases, answers included:
{"columns": ["molecule", "GI50"],
 "data": [
  ["Cn1c(=O)c2c(nc3n2CCCC(=O)N3CC(O)CCl)n(C)c1=O (stereo not given)", "> 100 µM (inactive)"],
  ["C/C(CCN(C)C)=N\\OC(=O)c1ccccc1", "> 100 µM (inactive)"]
]}

Attention now turns to another entry.
INPUT: Dear colleague, I am looking for the recorded GI50 of the following molecule: O=C1c2ccccc2C(=O)c2c(NCC(O)CO)ccc(NCC(O)CO)c21 (stereo not given)
OUTPUT: 61 µM (inactive)

* * *

# Tested on: HCT-116
# assay_method_text: NCI tumour cell line growth inhibition, 48 h
Calls of active or inactive are those of the source. Rule as the data show it: active = GI50 up to about 1.1 µM and inactive = higher.
Your response should consist of one outcome taken from yes (1) (active), no (0) (inactive)

INPUT: Lab log entry: CCN(CC)c1c(-c2c(N(CC)CC)c(OC(C)=O)c3sccn3c2=O)c(=O)n2ccsc2c1OC(C)=O — outcome as called in the assay?
OUTPUT: no (0)

INPUT: What did this assay record as the result for CN1CCN(CC(=O)N2c3ccccc3Sc3cc4ccccc4cc32)CC1 ?
OUTPUT: no (0)

INPUT: State the result this test recorded for COc1ccc2c(c1)/C(=C\c1c(-c3ccccc3)nc3n1CCS3)C(=O)N2 .
OUTPUT: no (0)

INPUT: Please state the recorded outcome for this molecule: CCCCCC(O)(CCCCC)CCCCCCCCC1=C(O)C(=O)c2ccccc2C1=O
OUTPUT: no (0)

INPUT: Record request — test call for CSc1n[n+]2c(s1)SCCC2
OUTPUT: no (0)

INPUT: Recorded test call requested for CCCCCCCCCCCC(=O)N(CCCCCCCCC)CC(O)C(O)C(OC1OC(CO)C(O)C(O)C1O)C(O)CO (centres undefined)
OUTPUT: no (0)

INPUT: For COc1ccc(NN=C2C(=O)CCC2=O)cc1 , what call appears in the results of this test?
OUTPUT: no (0)

INPUT: Test call for this molecule, please: O=C(O)c1c2c(cc3c1CC1(Cc4cc5c(cc4C1=O)CCC5)C3)CCC2 (centres undefined)
OUTPUT: no (0)

INPUT: Which outcome was assigned to CCCCCCCCCC[C@@H](O)[C@@H]1CC[C@@H]([C@@H]2CC[C@@H]([C@@H](O)CCCCCCCCCCC(O)CC3=CC(C)OC3=O)O2)O1 (some centres undefined) in this test?
OUTPUT: yes (1)

INPUT: What call does the record list for C=C(CCC/C(C)=C/C=C/[C@H](C)CCCc1ccoc1)C[C@@H]1OC(=O)[C@H](C)[C@@H]1O ?
OUTPUT: no (0)

INPUT: Please state the recorded outcome for this molecule: C=C1C(=O)OC2/C=C(\C)C3OC3/C=C(/C(=O)OC)C(OC(C)=O)C(OC(=O)C(C)(O)C(C)OC(C)=O)C12 (centres undefined)
OUTPUT: no (0)

INPUT: Could you please tell me the result logged for CC(C)(C)c1cc(C(CO)OCCOCCO)cc(C(C)(C)C)c1O (centres undefined) in this assay?
OUTPUT: no (0)

INPUT: Fill in: this test's call for COCC(=O)[C@]1(O)Cc2c(O)c3c(c(O)c2[C@@H](OC2CC(N)C(O)C(C)O2)C1)C(=O)c1c(OC)cccc1C3=O (some centres undefined) is ___
OUTPUT: yes (1)

INPUT: Identify the outcome logged in this assay for the molecule shown: COc1ccc(NC(=S)NN=C(C)c2cccc(C(C)=NNC(=S)Nc3ccc(OC)cc3)n2)cc1
OUTPUT: no (0)

* * *

Each entry below carries its recorded GI50.
# Tested on: MOLT-4
# assay_method_text: NCI tumour cell line growth inhibition, 48 h
The source made the active and inactive calls. No stated cut-off is given here; in the data, active = GI50 up to about 1.1 µM and inactive = higher.

Known results for molecules:
{"columns": ["molecule", "GI50"],
 "data": [
  ["CC(C)=C1C(=O)c2c(Cl)sc(Cl)c2C1=O", "36.6 µM (inactive)"],
  ["CC(=O)OCC1OC(OC2CC3C(C)(C)C(OC(C)=O)CC[C@]3(C)C3CCC45CC4(CCC5[C@@H](C)C[C@H](O)C(O)C(C)(C)O)[C@]23C)C(O)C(O)C1O (stereo not given in full)", "> 10 µM (inactive)"],
  ["Cc1cn2c(/C=C3/C(=O)Nc4ccccc43)c(C)nc2s1", "0.581 µM (active)"]
]}

Now let's try a different one.
INPUT: Under MOLT-4: GI50 value of CC(C(=O)OCc1ccccc1)N(Cc1ccccc1)Cc1ccccc1 (stereo not given) ?
OUTPUT: 33 µM (inactive)

* * *

# System: BT-549
# assay_method_text: NCI tumour cell line growth inhibition, 48 h
Calls of active or inactive are those of the source. Rule as the data show it: active = GI50 up to about 1.1 µM and inactive = higher.
reported_endpoint: GI50

Sample answers from the record:
{"columns": ["compound", "target_desc", "GI50"],
 "data": [
  ["O=C1c2ccccc2C(=O)c2nn(N=P(CP(=Nn3nc4c(n3)C(=O)c3ccccc3C4=O)(c3ccccc3)c3ccccc3)(c3ccccc3)c3ccccc3)nc21", "BT-549", "> 100 µM (inactive)"],
  ["CCOC(=O)C1(C(=O)OCC)C=C(c2ccccc2)N(C2OC(COC(C)=O)C(OC(C)=O)C(OC(C)=O)C2OC(C)=O)C1=S (centres undefined)", "BT-549", "72.3 µM (inactive)"],
  ["Cc1ccsc1/C=N/Nc1ccc2ccccc2n1", "BT-549", "34.4 µM (inactive)"],
  ["C[C@]12CC[C@@H]3c4cc(Br)c(O)c(Br)c4CC[C@H]3[C@@H]1CC(Br)C2=O (some centres undefined)", "BT-549", "5 µM (inactive)"],
  ["O=C(c1ccc(Cl)cc1)N(C(=O)N1CCCCC1)c1ccccc1", "BT-549", "48.3 µM (inactive)"],
  ["O=C(C[n+]1ccc2ccccc2c1)c1ccc2ccc3ccccc3c2c1", "BT-549", "11.2 µM (inactive)"],
  ["CCOC(=O)CN1C(=O)c2c(NC(=O)C(=O)O)cccc2S1(=O)=O", "BT-549", "> 100 µM (inactive)"],
  ["O=C(CN1CCN(Cc2ccccc2)CC1)N1CCCn2c1nc1ccccc1c2=O", "BT-549", "> 100 µM (inactive)"]
]}

INPUT: If you can, please state the reported GI50 value of COc1ccc2oc(S(=O)(=O)N3CC(CCl)c4ccc(N)cc43)cc2c1 (centres undefined) .
OUTPUT: 2.31 µM (inactive)

INPUT: If you can, please state the reported GI50 value of CC[C@@H](/C=C\CCC1(C[C@@H](N)CCC=C(C)C)OCCO1)O[Si](C(C)C)(C(C)C)C(C)C .
OUTPUT: 20.1 µM (inactive)

INPUT: Recorded GI50 of C/C(=N\Nc1nc2ccccc2o1)c1ncccn1 , please.
OUTPUT: 0.643 µM (active)

* * *

# Tested on: SK-MEL-2
# assay_method_text: NCI tumour cell line growth inhibition, 48 h
Calls of active or inactive are those of the source. No stated cut-off is given here; in the data, active = GI50 up to about 1.1 µM and inactive = higher.
Listing of entries alongside the reported GI50.

{"columns": ["compound", "GI50"],
 "data": [
  ["O=c1c2cccnc2ncn1CCCN1CCCCC1", "> 100 µM (inactive)"],
  ["NC(Cc1ccc2oc3cc(=O)c4ccccc4c-3nc2c1)C(=O)O (stereo not drawn)", "22.6 µM (inactive)"]
]}

INPUT: Query (compound): O=C(/C=N/O)Nc1cccc(Cl)c1I ; field requested: GI50
OUTPUT: 24.9 µM (inactive)

* * *

Catalogue of GI50 readings, one per entry.
# Test system: SK-MEL-5
# assay_method_text: NCI tumour cell line growth inhibition, 48 h
Calls of active or inactive are those of the source. No stated cut-off is given here; in the data, active = GI50 up to about 1.1 µM and inactive = higher.

Recorded results for 5 molecules are shown here.
{"columns": ["molecule", "GI50"],
 "data": [
  ["Cc1cc(S(=O)(=O)[N-]C(=C(C#N)C#N)[n+]2ccc(N(C)C)cc2)c(SCC(=O)O)cc1Cl", "> 100 µM (inactive)"],
  ["CC(=O)OC1CC2(O)C(CCC3(C)C(c4ccc(=O)oc4)CCC32O)C2(C)CCC(O)C=C12 (stereo not drawn)", "0.00439 µM (active)"],
  ["COc1cccc(NC(=O)CC(=O)N2N=C(C)C(/N=N/c3ccc(C(=O)O)cc3)C2=O)c1 (stereo not drawn)", "> 100 µM (inactive)"],
  ["Cc1ccnc2[nH]c(-c3ccccc3)cc(=O)c12", "0.00387 µM (active)"],
  ["COc1ccc(CNC2=Nc3ccncc3S(=O)(=O)N2c2ccccc2)cc1", "19 µM (inactive)"]
]}

INPUT: For the molecule CN1CCN(CC(=O)N2c3ccccc3Sc3cc4ccccc4cc32)CC1 , what GI50 is on record?
OUTPUT: 17.5 µM (inactive)

INPUT: Look at this molecule and give its reported GI50. c1ccc(-c2ccnc3c2ccc2c(-c4ccccc4)ccnc23)cc1
OUTPUT: 0.736 µM (active)

INPUT: Recorded GI50 of Nc1n[nH]c2nc3ccc(C(F)(F)F)cc3nc12 , please.
OUTPUT: 48.9 µM (inactive)

All figures here come from ChEMBL document CHEMBL1201862.
